Target: T1, EsCas13d, nuclease-dead (Eubacterium siraeum, UniProt B0MS50, R295A;H300A;R849A;H854A)
T1 sequence: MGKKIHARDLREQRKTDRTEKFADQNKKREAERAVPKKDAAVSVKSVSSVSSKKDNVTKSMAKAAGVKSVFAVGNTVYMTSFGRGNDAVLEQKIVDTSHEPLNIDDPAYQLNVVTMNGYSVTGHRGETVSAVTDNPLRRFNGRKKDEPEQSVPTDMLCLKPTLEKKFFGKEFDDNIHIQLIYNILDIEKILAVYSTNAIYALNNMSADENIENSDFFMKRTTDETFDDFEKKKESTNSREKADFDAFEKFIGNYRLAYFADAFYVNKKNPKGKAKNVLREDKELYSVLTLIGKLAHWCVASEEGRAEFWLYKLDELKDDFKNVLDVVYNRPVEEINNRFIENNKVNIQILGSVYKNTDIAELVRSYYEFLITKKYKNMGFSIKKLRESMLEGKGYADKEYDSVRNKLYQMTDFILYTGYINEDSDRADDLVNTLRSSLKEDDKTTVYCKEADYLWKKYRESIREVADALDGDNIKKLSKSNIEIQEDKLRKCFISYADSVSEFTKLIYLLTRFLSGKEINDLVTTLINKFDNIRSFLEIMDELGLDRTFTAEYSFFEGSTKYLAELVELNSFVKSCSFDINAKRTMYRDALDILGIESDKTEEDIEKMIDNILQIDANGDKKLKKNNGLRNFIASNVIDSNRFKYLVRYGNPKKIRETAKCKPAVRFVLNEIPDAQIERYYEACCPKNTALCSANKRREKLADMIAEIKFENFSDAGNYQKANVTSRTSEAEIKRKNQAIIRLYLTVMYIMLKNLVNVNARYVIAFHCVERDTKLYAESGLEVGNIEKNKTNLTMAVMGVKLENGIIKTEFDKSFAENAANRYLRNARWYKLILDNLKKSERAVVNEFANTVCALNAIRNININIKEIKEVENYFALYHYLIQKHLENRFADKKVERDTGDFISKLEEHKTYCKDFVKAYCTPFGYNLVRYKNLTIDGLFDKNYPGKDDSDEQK
Test: crRNA (strand 1, pre-loaded); Mg2+; 40 mM Tris-HCl pH 7.5, 150 mM NaCl, 6 mM MgCl2, 1 mM DTT, 0.1% Tween-20, 0.2 mg/ml BSA; 25 C; 10 min per concentration, then washed
Settings: tags: His6-TwinStrep-SUMO cleaved; N-terminal SNAP kept (SNAP-Surface 488); label: 3' end held by stalled T7 RNA polymerase
This section presents binders with their documented Kd values.
Just the number in nM, nothing appended.

target 1 G5C,A14C (mixed) RNA 1: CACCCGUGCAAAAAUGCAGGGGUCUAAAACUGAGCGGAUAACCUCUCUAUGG RNA 2: GGGAAUGGAUCCACAUCUACGAAUUCGUACCAUAGAGCGGUUAUCCCCUCACCGAGAUCGGAAGAGCACACGU ... 14.5
target 1 C6U,G17A (mixed) RNA 1: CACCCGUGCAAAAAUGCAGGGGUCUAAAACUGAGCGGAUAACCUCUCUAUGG RNA 2: GGGAAUGGAUCCACAUCUACGAAUUCGUACCAUAAAGAGGUUAUCUGCUCACCGAGAUCGGAAGAGCACACGU ... 42
target 1 A16C (mixed) RNA 1: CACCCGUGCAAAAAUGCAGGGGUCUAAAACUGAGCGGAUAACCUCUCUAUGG RNA 2: GGGAAUGGAUCCACAUCUACGAAUUCGUACCAUAGCGAGGUUAUCCGCUCACCGAGAUCGGAAGAGCACACGU ... 31

input: Give the measured Kd for target 1 G12A,A14U (mixed) RNA 1: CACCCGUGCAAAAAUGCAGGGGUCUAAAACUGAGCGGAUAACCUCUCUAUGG RNA 2: GGGAAUGGAUCCACAUCUACGAAUUCGUACCAUAGAGUGAUUAUCCGCUCACCGAGAUCGGAAGAGCACACGU
output: 26.3

input: Give the measured Kd for target 1 U10A,C21U (mixed) RNA 1: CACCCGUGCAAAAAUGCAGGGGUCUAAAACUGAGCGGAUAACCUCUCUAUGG RNA 2: GGGAAUGGAUCCACAUCUACGAAUUCGUACUAUAGAGAGGUAAUCCGCUCACCGAGAUCGGAAGAGCACACGU
output: 8.1

input: Give the measured Kd for target 2 MT 5'PFS CAU 3'PFS UUG (mixed) RNA 1: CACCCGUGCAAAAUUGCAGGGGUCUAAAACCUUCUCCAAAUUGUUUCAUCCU RNA 2: GGGAAUGGAUCCACAUCUACGAAUUCCAUAGGAUGAAACAAUUUGGAGAAGUUGAGAUCGGAAGAGCACACGU
output: 4.5

input: Give the measured Kd for target 1 C6G,C22A (mixed) RNA 1: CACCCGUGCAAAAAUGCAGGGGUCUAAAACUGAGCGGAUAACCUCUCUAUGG RNA 2: GGGAAUGGAUCCACAUCUACGAAUUCGUAACAUAGAGAGGUUAUCGGCUCACCGAGAUCGGAAGAGCACACGU
output: 14.7
